Biological target: CCR4 (Homo sapiens, UniProt P51679)
Sequence (P51679 whole entry): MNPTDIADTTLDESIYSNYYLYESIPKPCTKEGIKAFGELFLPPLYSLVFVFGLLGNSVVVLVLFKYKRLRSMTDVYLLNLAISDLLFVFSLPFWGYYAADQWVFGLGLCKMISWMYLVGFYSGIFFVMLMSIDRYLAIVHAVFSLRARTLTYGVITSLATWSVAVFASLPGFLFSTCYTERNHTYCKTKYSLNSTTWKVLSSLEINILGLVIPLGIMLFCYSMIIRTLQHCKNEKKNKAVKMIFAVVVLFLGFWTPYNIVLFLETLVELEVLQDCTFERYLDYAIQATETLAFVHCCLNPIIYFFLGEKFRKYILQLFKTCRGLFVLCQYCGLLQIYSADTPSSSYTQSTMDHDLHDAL
Test: Calcium flow detected by FLIPR
Settings: CCR4/HEK293 cells, agonist CCL17, Fluo-4 calcium signal
pIC50: −log10 of the molar value.

compound | pIC50
Cc1nc(N2CC([C@H]3CCCN([C@H]4C[C@](C)(C(=O)O)C4)C3)C2)nc2c1CCCN2C(C)c1ccc(Cl)cc1Cl (stereo partly drawn) | 6.30 to 7.00
Cc1nc(N[C@H](C)c2ccc(Cl)cc2Cl)nc(N2CC([C@H]3CCCN([C@H]4C[C@](C)(C(=O)O)C4)C3)C2)c1Cl | 6.30 to 7.00
Cc1nc(N2CC(C3CN(C4CC(C)(c5nn[nH]n5)C4)CCO3)C2)nc(NC(C)c2ccc(Cl)cc2Cl)c1Cl (single isomer, unassigned) [Compound 71 isomer 1] | 6.30 to 7.00
Cc1nc(N2CC(C3CN(CCO)CCN3C)C2)nc(NC(C)c2ccc(Cl)cc2Cl)c1Cl (single isomer, unassigned) [Compound 80 isomer 1] | > 7.00
Cc1nc(N2CCC(F)(C3CN(C4CC(C)(C(=O)O)C4)CCO3)CC2)nc(NC(C)c2ccc(Cl)cc2Cl)c1Cl (single isomer, unassigned) [Compound 106 isomer 3] | > 7.00
C[C@@H](Nc1cc(N2CC([C@H]3CCCN(CCO)C3)C2)ncn1)c1ccc(Cl)cc1Cl | > 7.00
CC(Nc1nc(N2CC(C3C=CCN(C4CC(C)(C(=O)O)C4)C3)C2)nc(C(F)F)c1Cl)c1ccc(Cl)cc1Cl (single isomer, unassigned) [Compound 85 isomer 1] | > 7.00
Cc1nc(C2CN(C3CCCN(C4CC(C)(C(=O)O)C4)C3)C2)nc(NC(C)c2ccc(Cl)cc2Cl)c1Cl (single isomer, unassigned) [Compound 20 isomer 3] | > 7.00
C[C@@H](Nc1nc(N2CC([C@H]3CCCN([C@H]4C[C@](C)(C(=O)O)C4)C3)C2)c2ccccc2n1)c1ccc(Cl)cc1Cl | > 7.00
C[C@@H](Nc1nc(N2CC([C@H]3CCCN([C@H]4C[C@](C)(C(=O)O)C4)C3)C2)c2ccn(C)c2n1)c1ccc(Cl)cc1Cl | 6.30 to 7.00
C[C@@H](Nc1nc(N2CC([C@H]3CCCN([C@H]4C[C@](C)(C(=O)O)C4)C3)C2)c2occc2n1)c1ccc(Cl)cc1Cl | > 7.00
CC(Nc1nc(N2CC(C3CN(C4CC(C)(C(=O)O)C4)CCO3)C2)c2ccccc2n1)c1ccc(Cl)cc1Cl (single isomer, unassigned) [Compound 60 isomer 1] | 6.30 to 7.00

----------
Quick list: AUC(0-t) per entry.
Assay: Pharmacokinetic test in beagle dogs
Assay type: in vivo
Settings: male, beagle, dog, po, plasma, i.g. 3 mg/kg

compound | unit.abbrev | AUC(0-t)
Cc1nc(N2CCC(C3CN(C4CC(C)(C(=O)O)C4)CCO3)CC2)nc(NC(C)c2ccc(Cl)cc2Cl)c1Cl (single isomer, unassigned) [Compound 73 isomer 3] | ng·h/mL | 37700
CC(Nc1cc(N2CCC(C3CN(C4CC(C)(C(=O)O)C4)CCO3)CC2)ccc1Cl)c1ccc(Cl)cc1Cl (single isomer, unassigned) [Compound 82 isomer 3] | ng·h/mL | 68400

----------
Assay: Pharmacokinetic test in rats
Type: in vivo, SD rats
Settings: i.g. 10 mg/kg

compound | result.modifier | F, %
Cc1nc(N2CCC(C3CN(C4CC(C)(C(=O)O)C4)CCO3)CC2)nc(NC(C)c2ccc(Cl)cc2Cl)c1Cl (single isomer, unassigned) [Compound 73 isomer 3] | = | 80.3
Cc1nc(N2CC(F)(C3CN(C4CC(C)(C(=O)O)C4)CCO3)C2)nc(N[C@H](C)c2ccc(Cl)cc2Cl)c1Cl (single isomer, unassigned) [Compound 64 isomer 3] | = | 108
C[C@@H](Nc1cc(N2CC(C3CN(C4CC(C)(C(=O)O)C4)CCO3)C2)ccc1Cl)c1ccc(Cl)cc1Cl (single isomer, unassigned) [Compound 83 isomer 1] | > | 98
Cc1nc(N2CC(C3CN(C4CC(C)(C(=O)O)C4)CCO3)C2)nc(NC(C)c2ccc(Cl)cc2Cl)c1Cl (single isomer, unassigned) [Compound 9 isomer 3] | = | 98.7
Cc1nc(N2CC3C(C2)C3C2CN(C3CC(C)(C(=O)O)C3)CCO2)nc(NC(C)c2ccc(Cl)cc2Cl)c1Cl (single isomer, unassigned) [Compound 78 isomer 3] | > | 98
